Each entry below carries its reported IC50.
Biological target: SARS-COV-2 3CLpro/Mpro protease (Severe acute respiratory syndrome coronavirus 2 (2019-nCoV) (SARS-CoV-2), UniProt P0DTD1)
Test: Inhibitory effect on SARS-COV-2 3CLpro/Mpro protease by fluorescence resonance energy transfer
Format: biochemical
Settings: activity intervals A-D, read-out: IC50 (nM), Inhibition on SARS-CoV-2 3CLpro/Mpro protease

// worked examples, IC50 included
1) COCCN1[C@H](C)CN(C(=O)c2cc(Br)cc([N+](=O)[O-])c2N[C@@H]2COCC[C@@H]2NC(=O)c2cncc3ccccc23)C[C@@H]1C [Example 195] :: 10 to 50 nM
2) COCCN1CCN(C(=O)c2cc(Br)cc([N+](=O)[O-])c2N[C@@H]2CCCN(C(=O)c3cncc(I)c3)C2)CC1 [Example 120] :: < 10 nM
3) CNc1cncc(C(=O)N2CC(Nc3c(C(=O)N4C[C@@H](C)N(CCOC)[C@@H](C)C4)cc(Br)cc3[N+](=O)[O-])C(F)(F)C2)c1 (stereo partly drawn) [Example 178] :: 50 to 100 nM
4) COCCN1CCN(C(=O)c2cc(Br)cc([N+](=O)[O-])c2N[C@@H]2COCC[C@@H]2NC(=O)c2cncc3ccccc23)CC1 [Example 218] :: 10 to 50 nM
5) CNc1cncc(C(=O)N2CCC[C@@H](Nc3c(C(=O)N4CCO[C@H](C5CC5)C4)cc(Br)cc3[N+](=O)[O-])C2)c1 [Example 342] :: 10 to 50 nM

Can you share its IC50? I mean this compound: Nc1cncc(C(=O)N2CCC[C@@H](Nc3c(C(=O)N4CCC(F)(F)CC4)cc(Br)cc3[N+](=O)[O-])C2)c1 [Example 71]
10 to 50 nM

====

Molecular target: SARS-COV-2 3CLpro/Mpro protease (Severe acute respiratory syndrome coronavirus 2 (2019-nCoV) (SARS-CoV-2))
Test: Inhibitory effect on SARS-COV-2 3CLpro/Mpro protease by fluorescence resonance energy transfer
Assay type: biochemical
Details: activity intervals A-D, read-out: IC50 (nM), Inhibition on SARS-CoV-2 3CLpro/Mpro protease
Measured endpoint: IC50

Solved cases (5 shown):
1. CCNc1cncc(C(=O)N2CCC[C@@H](Nc3c(C(=O)N4CCCCC4)cc(Br)cc3[N+](=O)[O-])C2)c1 :: 10 to 50 nM
2. CNc1cncc(C(=O)N2CCC[C@@H](Nc3c(C(=O)N4CCC5(CC4)CCC(C)(C)O5)cc(Br)cc3[N+](=O)[O-])C2)c1 :: 10 to 50 nM
3. O=C(c1cc(Br)cc([N+](=O)[O-])c1N[C@@H]1CCCN(C(=O)c2cncc3ccccc23)C1)N1CCNCC1 :: 10 to 50 nM
4. O=C(N[C@H]1CCCC[C@H]1Nc1c(C(=O)N2CCCC2)cc(Br)cc1[N+](=O)[O-])c1cncc2ccccc12 :: < 10 nM
5. CNc1cncc(C(=O)N2C[C@H](Nc3c(C(=O)N4C[C@@H](C)O[C@@H](C)C4)cc(Br)cc3[N+](=O)[O-])C[C@H]2C(=O)Nc2nn(C)cc2Br)c1 :: 10 to 50 nM

Now consider a different compound.
Please report the recorded IC50 for CNc1cncc(C(=O)N2C[C@H](Nc3c(C(=O)N4C[C@@H](C)O[C@@H](C)C4)cc(Br)cc3[N+](=O)[O-])CC[C@H]2C#N)c1 .
10 to 50 nM

====

Biological target: SARS-COV-2 3CLpro/Mpro protease (Severe acute respiratory syndrome coronavirus 2 (2019-nCoV) (SARS-CoV-2), UniProt P0DTD1)
Experiment: Inhibitory effect on SARS-COV-2 3CLpro/Mpro protease by fluorescence resonance energy transfer
Assay type: biochemical
Details: activity intervals A-D, read-out: IC50 (nM), Inhibition on SARS-CoV-2 3CLpro/Mpro protease
Measured endpoint: IC50

1) Cc1cncc(C(=O)N2CCC[C@@H](Nc3c(C(=O)N4CCCCC4)cc(Br)cc3[N+](=O)[O-])C2)c1 [Example 43] :: 10 to 50 nM
2) C[C@@H]1CN(C(=O)c2cc(Br)cc([N+](=O)[O-])c2N[C@@H]2CCCN(C(=O)c3cncc4cc(Cl)ccc34)C2)C[C@H](C)N1 [Example 135] :: 10 to 50 nM

Note: attention shifts to another entry.
Fill in: IC50 of CNc1cncc(C(=O)N2CCC[C@@H](Nc3c(C(=O)N4CCC5(CCCO5)CC4)cc(Br)cc3[N+](=O)[O-])C2)c1 [Example 268] is ___
< 10 nM

====

Assay: in vivo
Settings: male, CD1, mouse, in vivo, po, 10 mg/kg
Measured endpoint: half-life (min)
Value expressed in min; do not type the unit.

Fill in the blank: the reported half-life of CNc1cncc(C(=O)N2CCC[C@@H](Nc3c(C(=O)N4C5CCCC4COC5)cc(Br)cc3[N+](=O)[O-])C2)c1 [Example 312] is ____.
46.1

====

Target: SARS-COV-2 3CLpro/Mpro protease (Severe acute respiratory syndrome coronavirus 2 (2019-nCoV) (SARS-CoV-2), UniProt P0DTD1)
Assay: Inhibitory effect on SARS-COV-2 3CLpro/Mpro protease by fluorescence resonance energy transfer
Type: biochemical
Conditions: activity intervals A-D, read-out: IC50 (nM), Inhibition on SARS-CoV-2 3CLpro/Mpro protease
IC50 values by entry

// below: answered molecules
1) CNc1cncc(C(=O)N2CCC[C@@H](Nc3c(C(=O)N4CCCOC(C)C4)cc(Br)cc3[N+](=O)[O-])C2)c1 (stereo partly drawn) :: 10 to 50 nM
2) C[C@@H]1CN(C(=O)c2cc(Br)cc([N+](=O)[O-])c2N[C@@H]2CCCN(C(=O)c3cncc(I)c3)C2)C[C@H](C)N1 :: 10 to 50 nM

Please examine the following record next.
Requested read-out: IC50. Entry: CNc1cncc(C(=O)N2C[C@H](Nc3c(C(=O)N4C[C@@H](C)O[C@@H](C)C4)cc(Br)cc3[N+](=O)[O-])C[C@H]2C(=O)Nc2nn(C3C[C@@H](C)O[C@@H](C)C3)cc2Br)c1 (stereo partly drawn)
10 to 50 nM

====

Here, each record is paired with measured IC50 data.
Target: SARS-COV-2 3CLpro/Mpro protease (Severe acute respiratory syndrome coronavirus 2 (2019-nCoV) (SARS-CoV-2), UniProt P0DTD1)
Experiment: Inhibitory effect on SARS-COV-2 3CLpro/Mpro protease by fluorescence resonance energy transfer
Format: biochemical
Conditions: IC50 (nM), Inhibition on SARS-CoV-2 3CLpro/Mpro protease, activity intervals A-D

1) CNc1cncc(C(=O)N2C[C@H](Nc3c(C(=O)N4C5CCCC4COC5)cc(Br)cc3[N+](=O)[O-])[C@@H](OC)C2)c1 [Example 371] :: 10 to 50 nM
2) CNc1cncc(C(=O)N2CCC[C@@H](Nc3c(C(=O)N4CC5C=CC(C4)N5)cc(Br)cc3[N+](=O)[O-])C2)c1 [Example 335] :: 10 to 50 nM

Moving on to another compound below.
# input compound: CNc1cncc(C(=O)N2CCC[C@@H](Nc3c(C(=O)N4C5CCCC4CCC5)cc(Br)cc3[N+](=O)[O-])C2)c1 [Example 292] ; wanted: its IC50
10 to 50 nM

====

Biological target: SARS-COV-2 3CLpro/Mpro protease (Severe acute respiratory syndrome coronavirus 2 (2019-nCoV) (SARS-CoV-2), UniProt P0DTD1)
Assay: Inhibitory effect on SARS-COV-2 3CLpro/Mpro protease by fluorescence resonance energy transfer
Assay type: biochemical
Conditions: activity intervals A-D, read-out: IC50 (nM), Inhibition on SARS-CoV-2 3CLpro/Mpro protease
Measured endpoint: IC50

1) CNc1cncc(C(=O)N2C[C@H](Nc3c(C(=O)N4C[C@@H](C)O[C@@H](C)C4)cc(Br)cc3[N+](=O)[O-])C[C@H]2C(=O)NC2CCN(CCOC)CC2(F)F)c1 (single isomer, unassigned) [Compound 453-P1] :: 50 to 100 nM
2) CNc1cncc(C(=O)N2C[C@H](Nc3c(C(=O)N4C[C@@H](C)O[C@@H](C)C4)cc(Br)cc3[N+](=O)[O-])C[C@@H](OCCOC)C2)c1 [Example 446] :: 10 to 50 nM
3) O=C(c1cncc(Br)c1)N1CC[C@@H](Nc2c(C(=O)N3CCCCC3)cc(Br)cc2[N+](=O)[O-])C1 [Example 64] :: 10 to 50 nM
4) CNc1cncc(C(=O)N2CCC[C@@H](Nc3c(C(=O)N4CCn5ccnc5C4)cc(Br)cc3[N+](=O)[O-])C2)c1 [Example 352] :: 10 to 50 nM
5) O=C(N[C@H]1CCCC[C@H]1Nc1c(C(=O)N2CCC(F)(F)CC2)cc(Br)cc1[N+](=O)[O-])c1cc(=O)[nH]c2ccccc12 [Example 16] :: 10 to 50 nM

Field: next compound
Endpoint output: IC50 of CNc1cncc(C(=O)N2C[C@H](Nc3c(C(=O)N4CCCCC4)cc(Br)cc3[N+](=O)[O-])C(F)(F)C2)c1 [Example 168] . Value?
10 to 50 nM
